MEASURED PROPERTY: melting point

Here are 2 molecules together with their reported answers.
>>> df
                        molecule  value_measured
0  N#Cc1cc(Cl)ccc1NC(=O)C(F)(F)F   105 to 107 °C
1     N#Cc1c(N)ccc(C(=O)CBr)c1Cl   180 to 207 °C

Return reported melting point. Input molecule: CCCN(CCCc1csc2ccc(F)cc12)C1COc2cccc(OC)c2C1 (stereo not drawn) 78 °C

Give the reported melting point for this molecule. "Cc1c(OC(=O)c2ccccc2)ccc2c1OC(C)(C)CC2=O" 113 °C

Tell me melting point reported for "COC(=O)c1cc(NC(=O)C2CCCCC2)c2cc(Cc3ccc(F)cc3)cnc2c1O" 250 to 251 °C

Identify melting point associated with the molecule "Cc1ccc(-n2nc(C(C)(C)C)cc2NC(=O)NCc2ccccc2Oc2ccnc(N3CCN(C)CC3)n2)cc1" 150 °C

State its melting point for this molecule: "Clc1ccc(-c2cc(-c3ccccc3)c(-c3ccccc3)s2)cc1Cl" 101 to 103 °C

Give the reported value of melting point for this record: "CN(C)c1ccc(NC(=O)N2CCC(Nc3nccc(-c4c(-c5ccc(F)cc5)nc5occn45)n3)CC2)cc1" 225 to 227 °C

Output melting point of "COC(=O)NC1CCN(c2ncc3ncnc(Nc4ccc(F)c(Cl)c4)c3n2)CC1" 195 to 197 °C

Entry "Oc1cc(C(F)(F)F)nc(C(F)(F)F)c1" needs its melting point filled in; supply it. 123 to 130 °C

Consider the molecule CC(C)CC1NCCNC1=O (stereo not drawn) . State its measured melting point. 75 to 77 °C

Give me measured melting point, please, for this molecule: CNC(=S)C1(c2ccccn2)OCCCS1 (stereo not drawn) 157 °C

// fetch melting point given entry CC(Oc1ccc2nc(NC(=O)NCCN3CCOCC3)sc2c1)c1c(Cl)cccc1Cl (stereo not drawn) 165 to 168 °C

###

MEASURED PROPERTY: melting point

// below: answered compounds
>>> print(df.to_string())
                                   compound  value_measured
0  NC(=O)c1ncn2c1CN=C(c1ccccc1)c1cc(Cl)ccc1-2   295 to 296 °C
1  COc1ccc(C2CC(c3ccccc3)=NN2c2ccc(C(=O)O)cc2)cc1 (stereo unspecified)          226 °C
2   CN(C)CCC(=O)N1Cc2cccc3c2N(CC3)c2ccccc21   91 to 92.5 °C
3  CC(C)(O)COc1ccc(CCCO)c(Oc2ncc(C(F)(F)F)cc2Cl)c1   81.2 to 82 °C
4  COC(=O)c1cc(Cl)c(Oc2ccc(OC)c(C(=O)c3ccc(F)cc3)c2)c(Cl)c1   112 to 115 °C

Given "Nc1nc2ccccc2c2c1ncn2CCOCc1ccncc1" , respond with its melting point. 159 to 161 °C

Answer with the recorded melting point for the compound listed here: "COC(=O)c1cc2cc(NC(=O)c3cc4cc(N)ccc4[nH]3)ccc2[nH]1" > 350 °C

Could you please provide reported melting point for O=C(O)c1ccc(C#CC2(O)CN3CCC2CC3)cc1 (stereo unspecified) ? Thanks! 288 to 290 °C

Please report the measured melting point for "C[C@@H](Cc1ccc(O)cc1)NS(=O)(=O)c1ccccc1" 92 to 94 °C

Please list melting point recorded for the compound "Nc1c(Cl)ccc2c1C(=O)CO2" 160 °C

Dear colleague, please send me the reported melting point for "Cc1c(C)c(N2CCN(c3ccnn3C)CC2)c(C)c2c1OC(C)(C)C2" when you can. 126 to 128 °C
